// endpoint IC50 / system CYP3A4 (Homo sapiens, UniProt P08684)

# example entries with known answers
COc1ccc(Cc2cc([C@@H]3O[C@H](CO)[C@@H](O)[C@H](O)[C@H]3O)ccc2Cl)cc1 [Ref B, reference compound]; 250 µM
[2H]C([2H])([2H])Oc1ccc(Cc2cc([C@@H]3O[C@H](CO)[C@@H](O)[C@H](O)[C@H]3O)ccc2Cl)cc1 [24d]; ~1000 µM
[2H]C([2H])([2H])C([2H])([2H])Oc1ccc(Cc2cc([C@@H]3O[C@H](CO)[C@@H](O)[C@H](O)[C@H]3O)ccc2Cl)cc1 [24c]; 500 to 1000 µM

May I ask what IC50 has been recorded for [2H][C@@]1(c2ccc(Cl)c(Cc3ccc(OCC)cc3)c2)O[C@H](CO)[C@@H](O)[C@H](O)[C@H]1O [compound 5] ? 500 to 1000 µM

# input molecule: CCOc1ccc(Cc2cc([C@@H]3O[C@H](CO)[C@@H](O)[C@H](O)[C@H]3O)ccc2Cl)cc1 [Ref A, reference compound] ; wanted: its IC50 ~400 µM

For [2H]C([2H])([2H])Oc1ccc(C([2H])([2H])c2cc([C@@H]3O[C@H](CO)[C@@H](O)[C@H](O)[C@H]3O)ccc2Cl)cc1 [compound 19] , what is its reported IC50? > 1000 µM

====

assay-overview: Pharmacokinetic parameters in SD rats
Assay type: in vivo, Sprague-Dawley rats
study-conditions: Sprague-Dawley, rat, single oral 3 mg/kg in 30% PEG400, plasma
property: CL/F (mL/min/kg)

Known results for compounds:
COc1ccc(Cc2cc([C@@H]3O[C@H](CO)[C@@H](O)[C@H](O)[C@H]3O)ccc2Cl)cc1 [Ref B, reference compound]; 9.47
[2H]C([2H])(C)Oc1ccc(Cc2cc([C@@H]3O[C@H](CO)[C@@H](O)[C@H](O)[C@H]3O)ccc2Cl)cc1 [24a]; 2.4
CCOc1ccc(Cc2cc([C@@H]3O[C@H](CO)[C@@H](O)[C@H](O)[C@H]3O)ccc2Cl)cc1 [Ref A, reference compound]; 4.5

[A] OC[C@H]1O[C@@H](c2ccc(Cl)c(Cc3ccc(C4CC4)cc3)c2)[C@H](O)[C@@H](O)[C@@H]1O [Ref C, reference compound]
[B] [2H]C([2H])(COc1ccc(Cc2cc([C@@H]3O[C@H](CO)[C@@H](O)[C@H](O)[C@H]3O)ccc2Cl)cc1)OC1CC1 [compound 95]
[C] [2H]C([2H])(c1ccc(OCC)cc1)c1cc([C@@H]2O[C@H](CO)[C@@H](O)[C@H](O)[C@H]2O)ccc1Cl [compound 9]
# rank by CL/F, ascending (min first) Write out the labels following the order that was asked for. C, A, B
(C: 3.2 mL/min/kg, A: 5.2 mL/min/kg, B: 9.2 mL/min/kg)

====

assay-overview: Metabolism in SD rats: distribution of metabolites in urine
Assay type: in vivo
study-conditions: male SD rats, 50 mg/kg oral, five consecutive days, HPLC
Experimental: Each test compound was dissolved in 30% PEG400 and administered orally to male SD rats by gavages at the dose level of 50 mg/kg (when using co-crystals, the weight calculation was based on free drug) for five consecutive days. Control rats were given 30% PEG400 only. […] Food and water consumption were determined daily. Urine was collected pre-determined intervals: pre-dose, 0-4 hours, 4-8 hours, and 8-24 hours post-dose. Metabolites were analyzed and identified by LC/MS. […]
property: Distribution of Metabolites in Urine (% of total), Peak 1 (Parent) (%)

Please review the entries below; each comes with its answer.
COc1ccc(Cc2cc([C@@H]3O[C@H](CO)[C@@H](O)[C@H](O)[C@H]3O)ccc2Cl)cc1 [Ref B, reference compound]; 72
CCOc1ccc(Cc2cc([C@@H]3O[C@H](CO)[C@@H](O)[C@H](O)[C@H]3O)ccc2Cl)cc1 [Ref A, reference compound]; 40
[2H]C([2H])([2H])C([2H])([2H])Oc1ccc(Cc2cc([C@@H]3O[C@H](CO)[C@@H](O)[C@H](O)[C@H]3O)ccc2Cl)cc1 [24c]; 45

[1] [2H]C([2H])(c1ccc(OCC)cc1)c1cc([C@@H]2O[C@H](CO)[C@@H](O)[C@H](O)[C@H]2O)ccc1Cl
[2] [2H]C([2H])([2H])Oc1ccc(C([2H])([2H])c2cc([C@@H]3O[C@H](CO)[C@@H](O)[C@H](O)[C@H]3O)ccc2Cl)cc1
Lab note: check whether 1 or 2 shows the higher recorded Distribution of Metabolites in Urine (% of total), Peak 1 (Parent). Please reply using the label of the selected record. 2
